assay: Tmax in BALB/c mouse at 30 mg/kg, po; format: ADME, organism-based; details: in vivo
ASSAY_ENDPOINT: Tmax (min)
Respond with the bare value in min.

Below: 3 molecules and their reported Tmax.
In [3]: df
Out[3]:
                               query_smiles  measure_unit  numeric_result
0  c1cncc(-c2ccc3c(N4CCN(Cc5noc(C6CCCC6)n5)CC4)ccnc3c2)c1           min              30
1  Cc1cccc(-c2nc(CN3CCN(c4ccnc5cc(-c6cccnc6)ccc45)CC3)no2)c1C           min              30
2  CC(C)c1ccc(-c2nc(CN3CCN(c4ccnc5cc(-c6cccnc6)ccc45)CC3)no2)cc1           min              30

Would you kindly look at the next entry?
[ask] GET /values?readout=Tmax&item= CC(C)c1ccc(-c2nc(CN3CCN(c4ccnc5cc(Cl)ccc45)CC3)no2)cc1
[reply] 60
